Quick reference: pIC50 of the listed items.
target: mTOR (Homo sapiens); test: mTOR enzyme assay (DELFIA format, His6-S6K substrate); format: biochemical; settings: read-out: mTOR Kinase Median IC50
pIC50: −log10 of the molar value.
reported_property: pIC50

{"columns": ["compound", "result_value"],
 "data": [
  ["CN1CCN(C(=O)C2CCN(c3ccnc4c3c(/C=C3\\Oc5ccc(NC(=O)Nc6cccnc6)cc5C3=O)cn4C)CC2)CC1 [Compound 252]", 8.15],
  ["Cn1cc(/C=C2\\Oc3cc(O)cc(O)c3C2=O)c2c(-c3cccc(S(=O)(=O)N4CCCCC4)c3)ccnc21 [Compound 80]", 8.74],
  ["CN(C)C1CCN(C(=O)C2CCN(c3ccnc4c3c(C=C3Oc5ccc(NC(=O)Nc6cccnc6)cc5C3=O)cn4C)CC2)C1 (stereo not shown) [Compound 210]", 7.96],
  ["Cn1cc(C=C2Oc3cc(O)cc(O)c3C2=O)c2cccnc21 [Compound 1]", 7.38]
]}

###

pIC50: −log10 of the molar value.
PI3Kα (Homo sapiens, UniProt P42336) data, read-out pIC50
Sequence (P42336 whole entry, species assumed): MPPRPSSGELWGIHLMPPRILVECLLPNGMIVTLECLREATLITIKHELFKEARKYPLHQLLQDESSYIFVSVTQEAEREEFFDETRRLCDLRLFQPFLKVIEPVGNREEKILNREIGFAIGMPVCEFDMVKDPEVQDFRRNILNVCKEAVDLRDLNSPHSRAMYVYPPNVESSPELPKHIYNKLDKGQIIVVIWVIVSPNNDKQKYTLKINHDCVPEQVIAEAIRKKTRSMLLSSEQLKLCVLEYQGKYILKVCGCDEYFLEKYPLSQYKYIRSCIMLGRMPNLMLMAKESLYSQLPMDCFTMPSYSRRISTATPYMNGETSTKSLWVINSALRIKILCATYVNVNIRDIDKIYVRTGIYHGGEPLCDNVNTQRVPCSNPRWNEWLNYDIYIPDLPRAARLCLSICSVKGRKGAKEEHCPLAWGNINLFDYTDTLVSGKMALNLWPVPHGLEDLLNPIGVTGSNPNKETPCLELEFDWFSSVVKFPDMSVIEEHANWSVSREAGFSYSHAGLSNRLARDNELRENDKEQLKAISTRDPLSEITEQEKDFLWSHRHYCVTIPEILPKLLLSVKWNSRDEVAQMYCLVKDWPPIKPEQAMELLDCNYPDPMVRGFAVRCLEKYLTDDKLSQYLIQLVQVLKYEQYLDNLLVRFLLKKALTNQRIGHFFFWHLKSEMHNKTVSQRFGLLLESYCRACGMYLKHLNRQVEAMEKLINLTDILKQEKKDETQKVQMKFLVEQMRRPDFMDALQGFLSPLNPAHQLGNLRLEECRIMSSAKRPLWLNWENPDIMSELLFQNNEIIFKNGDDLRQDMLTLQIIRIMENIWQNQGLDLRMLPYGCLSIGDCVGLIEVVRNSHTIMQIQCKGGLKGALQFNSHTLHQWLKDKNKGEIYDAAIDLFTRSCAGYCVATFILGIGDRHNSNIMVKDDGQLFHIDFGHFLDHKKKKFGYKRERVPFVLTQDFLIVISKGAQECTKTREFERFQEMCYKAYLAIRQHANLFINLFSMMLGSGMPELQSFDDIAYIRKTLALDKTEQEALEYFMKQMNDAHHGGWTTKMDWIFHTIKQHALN
Sequence (P27986 whole entry partner, species assumed): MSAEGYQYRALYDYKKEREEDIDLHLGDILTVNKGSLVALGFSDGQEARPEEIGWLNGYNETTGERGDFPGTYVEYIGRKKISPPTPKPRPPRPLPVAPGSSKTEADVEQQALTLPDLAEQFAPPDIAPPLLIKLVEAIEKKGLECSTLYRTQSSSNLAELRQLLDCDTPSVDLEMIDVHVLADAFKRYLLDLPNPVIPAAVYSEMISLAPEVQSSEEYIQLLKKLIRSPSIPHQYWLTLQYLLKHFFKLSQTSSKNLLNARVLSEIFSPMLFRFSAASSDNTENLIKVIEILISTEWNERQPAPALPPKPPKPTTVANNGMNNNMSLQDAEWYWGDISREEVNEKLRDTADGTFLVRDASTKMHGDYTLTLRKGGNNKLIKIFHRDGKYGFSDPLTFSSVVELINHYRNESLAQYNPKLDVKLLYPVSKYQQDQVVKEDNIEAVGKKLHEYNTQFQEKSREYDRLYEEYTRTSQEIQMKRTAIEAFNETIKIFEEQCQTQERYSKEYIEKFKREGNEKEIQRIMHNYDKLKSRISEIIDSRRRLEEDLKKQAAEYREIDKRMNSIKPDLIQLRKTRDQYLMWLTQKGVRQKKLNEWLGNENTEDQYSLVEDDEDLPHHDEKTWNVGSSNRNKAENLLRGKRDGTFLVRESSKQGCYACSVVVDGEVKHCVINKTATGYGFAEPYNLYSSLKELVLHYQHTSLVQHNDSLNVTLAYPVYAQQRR
reported_property: pIC50

{"columns": ["compound", "measurement_qualifier", "result_value"],
 "data": [
  ["CCN(CCO)C(=O)c1ccc(-c2ccnc3c2c(/C=C2\\Oc4cccc(O)c4C2=O)cn3C)cc1 [Compound 243]", "=", 6.78],
  ["COCC1CN(C(=O)C2CCN(c3ccnc4c3c(/C=C3\\Oc5cccc(O)c5C3=O)cn4C)CC2)CCO1 (stereo not shown) [Compound 311]", "=", 6.84],
  ["Cn1cc(/C=C2\\Oc3ccc(NC(=O)NC4CCN(C(=O)C(F)(F)F)CC4)cc3C2=O)c2c(N3CC4CCC(C3)O4)ccnc21 [Compound 286]", "=", 6.45],
  ["O=C1C(=Cc2c[nH]c3ncccc23)Oc2cc(O)cc(O)c21 [Compound 11]", "=", 6.28],
  ["Cn1cc(/C=C2\\Oc3cccc(O)c3C2=O)c2c(-c3cc4ccccc4o3)ccnc21 [Compound 85]", "=", 6.56],
  ["Cc1cccc(CN(C)C(=O)C2CCN(c3ccnc4c3c(/C=C3\\Oc5ccc(NC(=O)Nc6cccnc6)cc5C3=O)cn4C)CC2)n1 [Compound 225]", "=", 5.63],
  ["CNC(=O)Nc1cccc2c1C(=O)/C(=C/c1cn(C)c3nccc(-c4ccccc4)c13)O2 [Compound 99]", "<", 5.00]
]}

###

molecular target: mTOR (Homo sapiens, UniProt P42345); assay: mTOR enzyme assay (DELFIA format, His6-S6K substrate); assay type: biochemical; conditions: read-out: mTOR Kinase Median IC50
Quick reference: IC50 of the listed items.
reported_property: IC50 (µM)

{"columns": ["compound", "measurement_qualifier", "result_value"],
 "data": [
  ["Cn1cc(/C=C2\\Oc3ccc(NC(=O)Nc4cccnc4)cc3C2=O)c2c(N3CCC(C(=O)N4CCOCC4)CC3)ccnc21 [Compound 173]", "=", 0.018],
  ["COc1ccc2c(n1)c(C=C1Oc3cccc(O)c3C1=O)cn2C [Compound 5]", ">", 20],
  ["Cn1cc(/C=C2\\Oc3cccc(O)c3C2=O)c2c(-c3ccc(C(=O)N4CC5CCC(C4)O5)cc3)ccnc21 [Compound 144]", "=", 0.0006],
  ["C[C@@H]1CN(c2ccnc3c2c(/C=C2\\Oc4ccc(NC(=O)Nc5cccnc5)cc4C2=O)cn3C)C[C@H](C)O1 [Compound 296]", "=", 0.019],
  ["Cn1cc(/C=C2\\Oc3ccc(NC(=O)Nc4cccnc4)cc3C2=O)c2c(N3CCC(C(=O)Nc4ccncc4)CC3)ccnc21 [Compound 263]", "=", 0.025],
  ["Cn1cc(/C=C2\\Oc3cccc(O)c3C2=O)c2c(-c3cc4ccccc4o3)ccnc21 [Compound 85]", "=", 0.0265],
  ["CN(C(=O)C1CCN(c2ccnc3c2c(/C=C2\\Oc4ccc(NC(=O)Nc5cccnc5)cc4C2=O)cn3C)CC1)C1CCCC1 [Compound 227]", "=", 0.165],
  ["CN1CCN(c2ccc(NC(=O)Nc3ccc4c(c3)C(=O)/C(=C/c3cn(C)c5nccc(N6CCC(C(=O)N(C)C)CC6)c35)O4)cn2)CC1 [Compound 230]", "=", 0.074],
  ["CC1CN(C(=O)C2CCN(c3ccnc4c3c(/C=C3\\Oc5ccc(NC(=O)Nc6cccnc6)cc5C3=O)cn4C)CC2)CC(C)O1 (stereo not drawn) [Compound 265]", "=", 0.0405],
  ["CN(C)C(=O)c1ccc(-c2ccnc3c2c(/C=C2\\Oc4cccc(O)c4C2=O)cn3C)cc1 [Compound 111]", "=", 0.0005],
  ["Cn1cc(/C=C2\\Oc3cccc(O)c3C2=O)c2c(-c3ccc(CN4CCOCC4)cc3)ccnc21 [Compound 130]", "=", 0.0032],
  ["Cn1cc(/C=C2\\Oc3cccc(O)c3C2=O)c2c(N3CC4CC3CN4)ccnc21 (stereo not drawn) [Compound 101]", "=", 0.0108],
  ["Cn1cc(/C=C2\\Oc3cc(O)cc(O)c3C2=O)c2c(-c3ccc(C(N)=O)cc3)ccnc21 [Compound 34]", "=", 0.0002],
  ["Cn1cc(/C=C2\\Oc3cccc(O)c3C2=O)c2c(N3CCC(CN)CC3)ccnc21 [Compound 115]", "=", 0.017],
  ["Cn1cc(/C=C2\\Oc3cccc(O)c3C2=O)c2c(N3CC4COC(C3)O4)ccnc21 (stereo not drawn) [Compound 165]", "=", 0.0027]
]}
